- PROTOCOL: Partition coefficient (logD), n-octanol/PBS pH 7.4
- Assay type: physicochemical
- SETUP_CONDITIONS: 68Ga-labeled compounds, mean ± SD, read-out: Partition Coefficient [logDoctanol/PBS]
Non-standard residues stand in square brackets, D forms with d. Residues, ends and D or L forms follow the SMILES beside them. *: point of attachment. DOTA = O=C(O)CN1CCN(CC(=O)O)CCN(CC(=O)*)CCN(CC(=O)O)CC1; EuK = O=C(O)CC[C@H](NC(=O)N[C@@H](CCCCN*)C(=O)O)C(=O)O; 2Nal = N[C@@H](Cc1ccc2ccccc2c1)C(=O)O; Trx = NC[C@H]1CC[C@H](C(=O)O)CC1
VALUE_TYPE: logD
Provide a numeric answer; units are not to be included.

O=C(O)CC[C@H](NC(=O)N[C@@H](CCCCNC(=O)[C@H](Cc1ccc2ccccc2c1)NC(=O)[C@H](Cc1c[nH]cn1)NC(=O)[C@H](CCC(=O)O)NC(=O)[C@H](Cc1c[nH]cn1)NC(=O)[C@H](CCC(=O)O)NC(=O)[C@H](Cc1c[nH]cn1)NC(=O)[C@H](CCC(=O)O)NC(=O)[C@H]1CC[C@H](CNC(=O)CN2CCN(CC(=O)O)CCN(CC(=O)O)CCN(CC(=O)O)CC2)CC1)C(=O)O)C(=O)O [PS2, EuK-NaI-(HE)3-ChX-DOTA] ({DOTA-Trx}-EHEHEH[2Nal]-EuK) ... -3.4

Would you kindly look at the next entry?
For O=C(O)CC[C@H](NC(=O)N[C@@H](CCCCNC(=O)[C@H](Cc1ccc2ccccc2c1)NC(=O)[C@H]1CC[C@H](CNC(=O)[C@H](Cc2c[nH]cn2)NC(=O)[C@H](CCC(=O)O)NC(=O)[C@H](Cc2c[nH]cn2)NC(=O)[C@H](CCC(=O)O)NC(=O)[C@H](Cc2c[nH]cn2)NC(=O)[C@H](CCC(=O)O)NC(=O)CN2CCN(CC(=O)O)CCN(CC(=O)O)CCN(CC(=O)O)CC2)CC1)C(=O)O)C(=O)O [PS3, EuK-NaI-ChX-(HE)3-DOTA] ({DOTA}-EHEHEH[Trx][2Nal]-EuK) , what is its reported logD?
-3.6

====

- PROTOCOL: in vivo
- SETUP_CONDITIONS: male, BALB/c nu/nu, mouse, iv, 500 pmol, total radioactivity, SUV muscle
Non-standard residues stand in square brackets, D forms with d. Residues, ends and D or L forms follow the SMILES beside them. *: point of attachment. DOTA = O=C(O)CN1CCN(CC(=O)O)CCN(CC(=O)*)CCN(CC(=O)O)CC1; EuK = O=C(O)CC[C@H](NC(=O)N[C@@H](CCCCN*)C(=O)O)C(=O)O; 2Nal = N[C@@H](Cc1ccc2ccccc2c1)C(=O)O; Trx = NC[C@H]1CC[C@H](C(=O)O)CC1
Entries and their SUV at 1 h values follow.
Reply with just the number (in SUV).

O=C(O)CC[C@H](NC(=O)N[C@@H](CCCCNC(=O)[C@H](Cc1ccc2ccccc2c1)NC(=O)[C@H](Cc1c[nH]cn1)NC(=O)[C@H](CCC(=O)O)NC(=O)[C@H](Cc1c[nH]cn1)NC(=O)[C@H](CCC(=O)O)NC(=O)[C@H](Cc1c[nH]cn1)NC(=O)[C@H](CCC(=O)O)NC(=O)[C@H]1CC[C@H](CNC(=O)CN2CCN(CC(=O)O)CCN(CC(=O)O)CCN(CC(=O)O)CC2)CC1)C(=O)O)C(=O)O [PS2, EuK-NaI-(HE)3-ChX-DOTA] ({DOTA-Trx}-EHEHEH[2Nal]-EuK) ... 0.11

Below: the item to evaluate.
Please look up its SUV at 1 h: O=C(O)CC[C@H](NC(=O)N[C@@H](CCCCNC(=O)[C@H](Cc1ccc2ccccc2c1)NC(=O)[C@H]1CC[C@H](CNC(=O)[C@H](Cc2c[nH]cn2)NC(=O)[C@H](CCC(=O)O)NC(=O)[C@H](Cc2c[nH]cn2)NC(=O)[C@H](CCC(=O)O)NC(=O)[C@H](Cc2c[nH]cn2)NC(=O)[C@H](CCC(=O)O)NC(=O)CN2CCN(CC(=O)O)CCN(CC(=O)O)CCN(CC(=O)O)CC2)CC1)C(=O)O)C(=O)O [PS3, EuK-NaI-ChX-(HE)3-DOTA] ({DOTA}-EHEHEH[Trx][2Nal]-EuK)
0.13

====

logD reference
- PROTOCOL: Partition coefficient (logD), n-octanol/PBS pH 7.4
- Assay type: physicochemical
- SETUP_CONDITIONS: 68Ga-labeled compounds, mean ± SD, read-out: Partition Coefficient [logDoctanol/PBS]
- Experimental: To determine the lipophilicity expressed as distribution coefficient (logD), a two-phase system of n-octanol (500 µl) and phosphate buffered saline (PBS) (490 µl) at pH 7.4 was used (n = 4). Compounds were radiolabeled with [^68Ga]Ga^3+ and the mixture diluted to a concentration of 0.25 µM in PBS. 10 µl of the 0.25 µM dilution were added to the n-octanol / PBS mixture. […] Two samples from each phase (100 µl) were taken and measured in a γ-gamma counter (PerkinElmer, Waltham, USA). […]
Non-standard residues stand in square brackets, D forms with d. Residues, ends and D or L forms follow the SMILES beside them. *: point of attachment. DOTA = O=C(O)CN1CCN(CC(=O)O)CCN(CC(=O)*)CCN(CC(=O)O)CC1; EuK = O=C(O)CC[C@H](NC(=O)N[C@@H](CCCCN*)C(=O)O)C(=O)O; 2Nal = N[C@@H](Cc1ccc2ccccc2c1)C(=O)O; Trx = NC[C@H]1CC[C@H](C(=O)O)CC1
Answer with a bare number; do not write a unit.

O=C(O)CC[C@H](NC(=O)N[C@@H](CCCCNC(=O)[C@H](Cc1c[nH]cn1)NC(=O)[C@H](CCC(=O)O)NC(=O)[C@H](Cc1c[nH]cn1)NC(=O)[C@H](CCC(=O)O)NC(=O)[C@H](Cc1c[nH]cn1)NC(=O)[C@H](CCC(=O)O)NC(=O)[C@H](Cc1ccc2ccccc2c1)NC(=O)[C@H]1CC[C@H](CNC(=O)CN2CCN(CC(=O)O)CCN(CC(=O)O)CCN(CC(=O)O)CC2)CC1)C(=O)O)C(=O)O [PS1, EuK-(HE)3-NaI-ChX-DOTA] ({DOTA-Trx}-[2Nal]EHEHEH-EuK) ... -3.5
O=C(O)CC[C@H](NC(=O)N[C@@H](CCCCNC(=O)[C@H](Cc1ccc2ccccc2c1)NC(=O)[C@H]1CC[C@H](CNC(=O)[C@H](CCC(=O)O)NC(=O)[C@H](Cc2c[nH]cn2)NC(=O)[C@H](CCC(=O)O)NC(=O)[C@H](Cc2c[nH]cn2)NC(=O)[C@H](CCC(=O)O)NC(=O)[C@H](Cc2c[nH]cn2)NC(=O)CN2CCN(CC(=O)O)CCN(CC(=O)O)CCN(CC(=O)O)CC2)CC1)C(=O)O)C(=O)O [PS4, EuK-NaI-ChX-(EH)3-DOTA] ({DOTA}-HEHEHE[Trx][2Nal]-EuK) ... -3.9
O=C(O)CC[C@H](NC(=O)N[C@@H](CCCCNC(=O)[C@H](Cc1ccc2ccccc2c1)NC(=O)[C@H](Cc1c[nH]cn1)NC(=O)[C@H](Cc1c[nH]cn1)NC(=O)[C@H](Cc1c[nH]cn1)NC(=O)[C@H]1CC[C@H](CNC(=O)CN2CCN(CC(=O)O)CCN(CC(=O)O)CCN(CC(=O)O)CC2)CC1)C(=O)O)C(=O)O [PS10, EuK-NaI-H3-ChX-DOTA] ({DOTA-Trx}-HHH[2Nal]-EuK) ... -3.7

What does the data say about its logD? Entry: O=C(O)CC[C@H](NC(=O)N[C@@H](CCCCNC(=O)[C@H](Cc1ccc2ccccc2c1)NC(=O)[C@H]1CC[C@H](CNC(=O)[C@H](Cc2c[nH]cn2)NC(=O)[C@H](Cc2c[nH]cn2)NC(=O)[C@H](Cc2c[nH]cn2)NC(=O)CN2CCN(CC(=O)O)CCN(CC(=O)O)CCN(CC(=O)O)CC2)CC1)C(=O)O)C(=O)O [PS11, EuK-NaI-ChX-H3-DOTA] ({DOTA}-HHH[Trx][2Nal]-EuK)
-3.6

====

- PROTOCOL: in vivo
- SETUP_CONDITIONS: male, BALB/c nu/nu, mouse, iv, 500 pmol, total radioactivity, SUV kidneys
Non-standard residues stand in square brackets, D forms with d. Residues, ends and D or L forms follow the SMILES beside them. *: point of attachment. DOTA = O=C(O)CN1CCN(CC(=O)O)CCN(CC(=O)*)CCN(CC(=O)O)CC1; EuK = O=C(O)CC[C@H](NC(=O)N[C@@H](CCCCN*)C(=O)O)C(=O)O; 2Nal = N[C@@H](Cc1ccc2ccccc2c1)C(=O)O; Trx = NC[C@H]1CC[C@H](C(=O)O)CC1
# SUV at 1 h annotations
Respond with the bare value in SUV.

Observe how each entry below is paired with its result.
O=C(O)CC[C@H](NC(=O)N[C@@H](CCCCNC(=O)[C@H](Cc1c[nH]cn1)NC(=O)[C@H](CCC(=O)O)NC(=O)[C@H](Cc1c[nH]cn1)NC(=O)[C@H](CCC(=O)O)NC(=O)[C@H](Cc1c[nH]cn1)NC(=O)[C@H](CCC(=O)O)NC(=O)[C@H](Cc1ccc2ccccc2c1)NC(=O)[C@H]1CC[C@H](CNC(=O)CN2CCN(CC(=O)O)CCN(CC(=O)O)CCN(CC(=O)O)CC2)CC1)C(=O)O)C(=O)O [PS1, EuK-(HE)3-NaI-ChX-DOTA] ({DOTA-Trx}-[2Nal]EHEHEH-EuK) ... 1.71
O=C(O)CC[C@H](NC(=O)N[C@@H](CCCCNC(=O)[C@H](Cc1ccc2ccccc2c1)NC(=O)[C@H]1CC[C@H](CNC(=O)[C@H](CCC(=O)O)NC(=O)[C@H](Cc2c[nH]cn2)NC(=O)[C@H](CCC(=O)O)NC(=O)[C@H](Cc2c[nH]cn2)NC(=O)[C@H](CCC(=O)O)NC(=O)[C@H](Cc2c[nH]cn2)NC(=O)CN2CCN(CC(=O)O)CCN(CC(=O)O)CCN(CC(=O)O)CC2)CC1)C(=O)O)C(=O)O [PS4, EuK-NaI-ChX-(EH)3-DOTA] ({DOTA}-HEHEHE[Trx][2Nal]-EuK) ... 3.81
O=C(O)CC[C@H](NC(=O)N[C@@H](CCCCNC(=O)[C@H](CCC(=O)O)NC(=O)[C@H](CCC(=O)O)NC(=O)[C@H](CCC(=O)O)NC(=O)[C@H](Cc1ccc2ccccc2c1)NC(=O)[C@H]1CC[C@H](CNC(=O)CN2CCN(CC(=O)O)CCN(CC(=O)O)CCN(CC(=O)O)CC2)CC1)C(=O)O)C(=O)O [PS6, EuK-E3-NaI-ChX-DOTA] ({DOTA-Trx}-[2Nal]EEE-EuK) ... 1.53
O=C(O)CC[C@H](NC(=O)N[C@@H](CCCCNC(=O)[C@H](Cc1ccc2ccccc2c1)NC(=O)[C@H]1CC[C@H](CNC(=O)[C@H](Cc2c[nH]cn2)NC(=O)[C@H](Cc2c[nH]cn2)NC(=O)[C@H](Cc2c[nH]cn2)NC(=O)CN2CCN(CC(=O)O)CCN(CC(=O)O)CCN(CC(=O)O)CC2)CC1)C(=O)O)C(=O)O [PS11, EuK-NaI-ChX-H3-DOTA] ({DOTA}-HHH[Trx][2Nal]-EuK) ... 1.24

From here, focus on the item given below.
Fill blank: measured SUV at 1 h of the compound O=C(O)CC[C@H](NC(=O)N[C@@H](CCCCNC(=O)[C@H](Cc1ccc2ccccc2c1)NC(=O)[C@H]1CC[C@H](CNC(=O)[C@H](Cc2c[nH]cn2)NC(=O)[C@H](CCC(=O)O)NC(=O)[C@H](Cc2c[nH]cn2)NC(=O)[C@H](CCC(=O)O)NC(=O)[C@H](Cc2c[nH]cn2)NC(=O)[C@H](CCC(=O)O)NC(=O)CN2CCN(CC(=O)O)CCN(CC(=O)O)CCN(CC(=O)O)CC2)CC1)C(=O)O)C(=O)O [PS3, EuK-NaI-ChX-(HE)3-DOTA] ({DOTA}-EHEHEH[Trx][2Nal]-EuK) is ____.
3.05
